The origin of these recorded values is paper PMC5365654.

This section presents compounds with their documented MIC values.
- Tested on: E. coli EC113, ST 131
- run_description: Broth microtiter dilution MIC, EC113
- Assay type: cell-based
- condition_notes: Escherichia coli, CTX-M-27 (A), without cyclic boronate 2 supplementation, read-out: MIC (mg/liter) for β-lactam
measure: MIC

1) CO/N=C(\C(=O)N[C@@H]1C(=O)N2C(C(=O)O)=C(CSc3nc(=O)c(=O)[nH]n3C)CS[C@H]12)c1csc(N)n1; > 32 mg/L
2) CC1(C)S[C@@H]2[C@H](NC(=O)[C@H](N)c3ccccc3)C(=O)N2[C@H]1C(=O)O; > 16 mg/L
3) CC(C)(O/N=C(\C(=O)N[C@@H]1C(=O)N2C(C(=O)[O-])=C(C[n+]3ccccc3)CS[C@H]12)c1csc(N)n1)C(=O)O; 8 mg/L
4) CCN1CCN(C(=O)N[C@@H](C(=O)N[C@@H]2C(=O)N3[C@@H]2SC(C)(C)[C@@H]3C(=O)O)c2ccccc2)C(=O)C1=O; > 64 mg/L

----------
- subject_of_test: VIM-1 (Pseudomonas aeruginosa, UniProt A0A0F7KYQ8)
- Construct: His tag (3C-cleavable) (C, cleaved yes); made in house
- run_description: FC5 fluorogenic metallo-β-lactamase inhibition assay, VIM-1
- Assay type: biochemical
- condition_notes: pH 7.5; preincubation 0 min; FC5 substrate; read-out: IC50, μM (mean ± SD) for VIM-1, pH 7.5
- Protocol: To investigate the extent to which cyclic boronates inhibit class C β-lactamases as well as the important class A ESBL and class D carbapenemase targets, we used a fluorogenic assay ([22]) to screen the cyclic boronates, which we have found to inhibit other β-lactamases ([21]), against them. […] Inhibition assays were carried out using FC5 as a fluorogenic reporter substrate ([22]). […] Residual enzyme activity was determined for a range of inhibitor concentrations. […]
measure: IC50 (µM)

1) O=C(O)C(S)c1ccccc1 (racemic) [(±)-Thiomandelic acid, thiomandelic acid]; 0.38

----------
- subject_of_test: VIM-1 (Pseudomonas aeruginosa, UniProt A0A0F7KYQ8)
- Construct: His tag (3C-cleavable) (C, cleaved yes); made in house
- run_description: FC5 fluorogenic metallo-β-lactamase inhibition assay, VIM-1
- Format: biochemical
- condition_notes: pH 7.5; preincubation 30 min; FC5 substrate; read-out: IC50, μM (mean ± SD) for VIM-1, pH 7.5
- Description: To investigate the extent to which cyclic boronates inhibit class C β-lactamases as well as the important class A ESBL and class D carbapenemase targets, we used a fluorogenic assay ([22]) to screen the cyclic boronates, which we have found to inhibit other β-lactamases ([21]), against them. […] Inhibition assays were carried out using FC5 as a fluorogenic reporter substrate ([22]). […] Residual enzyme activity was determined for a range of inhibitor concentrations. […]
measure: IC50 (µM)

1) O=C(O)C(S)c1ccccc1 (racemic) [(±)-Thiomandelic acid, thiomandelic acid]; 0.8

----------
- subject_of_test: BcII (Bacillus cereus, UniProt P04190)
- Sequence (P04190 31-257): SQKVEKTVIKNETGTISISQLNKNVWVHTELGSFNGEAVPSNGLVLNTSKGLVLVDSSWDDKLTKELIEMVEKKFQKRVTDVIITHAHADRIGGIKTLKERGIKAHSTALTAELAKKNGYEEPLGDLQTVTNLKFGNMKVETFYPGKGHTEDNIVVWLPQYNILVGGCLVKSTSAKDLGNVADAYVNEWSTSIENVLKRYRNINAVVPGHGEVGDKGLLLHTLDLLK
- run_description: FC5 fluorogenic metallo-β-lactamase inhibition assay, BcII
- Type: biochemical
- condition_notes: pH 6.5; preincubation 30 min; FC5 substrate; read-out: IC50, μM (mean ± SD) for BcII, pH 6.5
measure: IC50

1) O=C(O)C(S)c1ccccc1 (racemic) [(±)-Thiomandelic acid, thiomandelic acid]; 0.5 µM

----------
- subject_of_test: BcII (Bacillus cereus)
- run_description: FC5 fluorogenic metallo-β-lactamase inhibition assay, BcII
- Type: biochemical
- condition_notes: pH 6.5; preincubation 0 min; FC5 substrate; read-out: IC50, μM (mean ± SD) for BcII, pH 6.5
- Description: To investigate the extent to which cyclic boronates inhibit class C β-lactamases as well as the important class A ESBL and class D carbapenemase targets, we used a fluorogenic assay ([22]) to screen the cyclic boronates, which we have found to inhibit other β-lactamases ([21]), against them. […] Inhibition assays were carried out using FC5 as a fluorogenic reporter substrate ([22]). […] Residual enzyme activity was determined for a range of inhibitor concentrations. […]
measure: IC50

1) O=C(O)C(S)c1ccccc1 (racemic) [(±)-Thiomandelic acid, thiomandelic acid]; 0.27 µM
